Origin of values: ChEMBL document CHEMBL1201862

- Tested on: HOP-62
- measurement.description: NCI tumour cell line growth inhibition, 48 h
Calls of active or inactive are those of the source. No stated cut-off is given here; in the data, active = GI50 up to about 1.1 µM and inactive = higher.
Please reply with one of these outcomes: class 1 = active, class 0 = inactive

Input line: How did this test come out for "C=C(CN(C)C)C(=O)c1ccccc1Cl" ?
Output line: class 0

Input line: How did this test come out for "C/C(=N\NC(=S)N(C)C)c1ccccn1" ?
Output line: class 1

Input line: How did this test come out for O=S(=O)(/C=C/C=C/[S+]([O-])c1ccccc1)c1ccccc1 (stereo unspecified) ?
Output line: class 0

Input line: How did this test come out for "Cc1cc(C)nc(NS(=O)(=O)c2ccc(NC(=O)c3cccn4c(=O)c5ccccc5nc34)cc2)n1" ?
Output line: class 0

Input line: How did this test come out for "C/C(=N\NC(=O)c1ccncc1)c1ccccc1F" ?
Output line: class 0

Input line: How did this test come out for "Cc1ccc(/C=N\NC(=O)c2ccncc2)s1" ?
Output line: class 0

Input line: How did this test come out for "CCOC(=O)c1ccc(C)c(/N=N/N(C)C)c1" ?
Output line: class 0

Input line: How did this test come out for CCOC(=O)C(C(CC(=O)OC)NC(=O)OCc1ccccc1)C1(C)OCCO1 (stereo unspecified) ?
Output line: class 0

Input line: How did this test come out for CC(C(O)Cc1ccccc1)N(C)/N=N/c1ccc([N+](=O)[O-])cc1 (stereo unspecified) ?
Output line: class 0

Input line: How did this test come out for C=C1C(=O)CC2C1CC(=O)/C(C)=C/CCC(C)(O)C2O (stereo unspecified) ?
Output line: class 0

Input line: How did this test come out for "O=C(N[C@@H](c1ccccc1)[C@@H](O)C(=O)OCc1ccc([N+](=O)[O-])cc1)c1ccccc1" ?
Output line: class 0

* * *

What GI50 was measured for each of the following?
- Test system: SF-268
- measurement.description: NCI tumour cell line growth inhibition, 48 h
Activity calls are given as the source filed them. Cut-off read from the data, not from the text of the source: active = GI50 up to about 1.1 µM and inactive = higher.

Completed entries (count: 3):
N#CS/C(C(Cl)=C(Cl)Cl)=C(/Cl)[N+](=O)[O-]	3.17 µM (inactive)
O=C(Nc1ccccc1)c1nn(-c2cc(S(=O)(=O)O)c([N+](=O)[O-])cc2Cl)[n+](-c2cc(S(=O)(=O)[O-])c([N+](=O)[O-])cc2Cl)n1	> 100 µM (inactive)
CC1=NN(C(=O)CC(=O)Nc2ccccc2)C(=O)C1/N=N/c1ccc(C(=O)O)cc1 (centres undefined)	77.8 µM (inactive)

# evaluate next
Input line: Give the measured GI50 of CC(O)C1(O)C(O)CC(OC2c3cc4c(c(O)c3[C@@H]3C[C@@]2(C)OC32C=c3cc[nH]c3=N2)C(=O)c2cccc(O)c2C4=O)OC1C (some centres undefined) .
Output line: 1.79 µM (inactive)

* * *

- Test system: SNB-75
- measurement.description: NCI tumour cell line growth inhibition, 48 h
Activity calls are given as the source filed them. No stated cut-off is given here; in the data, active = GI50 up to about 1.1 µM and inactive = higher.
Please reply with one of these outcomes: active, inactive

Observe how each entry below is paired with its result.
Cc1ccc(/C=N/NS(=O)(=O)c2ccccc2)cc1C	inactive
O=C1C2C=CC(n3[nH]c(=O)n(Cc4ccccc4)c3=O)CC2C(=O)N1c1ccc(Br)cc1 (configuration not stated)	inactive
Cc1ccc(C2NC(=N)NC3=C2CCOc2c3ccc3ccccc23)cc1 (configuration not stated)	inactive
Cc1ccc(C2COc3cc(O)c(O)cc3C2)cc1 (configuration not stated)	inactive
CN1CCN(C2CC(=O)c3c(Cl)sc(Cl)c32)CC1 (configuration not stated)	inactive

Input line: How did this test come out for CCOC1=C2N=C(C(CC)c3ccc(F)cc3)N=C2C(=O)c2ccccc21 (configuration not stated) ?
Output line: inactive

Input line: How did this test come out for "COc1ccc2[nH]c(C(O)(Cc3cccnc3)Cc3cccnc3)cc2c1" ?
Output line: inactive

Input line: How did this test come out for C=C1C(=O)OC2/C=C(\CO)CC/C=C(\CO)CC(OC(=O)C(C)C)C12 (configuration not stated) ?
Output line: inactive

Input line: How did this test come out for "Cc1ccc(NC(Nc2ccc(C)cc2C)=C(C(Cl)=C(Cl)Cl)[N+](=O)[O-])c(C)c1" ?
Output line: inactive

Input line: How did this test come out for "Cc1ccc(/C=C/C(=O)c2cccc3ccccc23)cc1" ?
Output line: inactive
